assay.info: Prodrug activation assessed as Escherichia coli NR-mediated compound reduction by measuring specific enzyme activity at 100 uM measured every 20 mins by HPLC based UV-vis method relative to CB1954
measurement.type: fold change (FC)

compound="O=[N+]([O-])c1ccc(N2Cc3ccccc3CC2CCl)cc1C(F)(F)F (stereo not given)" result=0.057

a: O=[N+]([O-])c1ccc(N2Cc3ccccc3CC2CCl)c(C(F)(F)F)c1 (stereo not given)
b: O=[N+]([O-])c1ccc(N2Cc3ccccc3CC2CCl)c([N+](=O)[O-])c1 (stereo not given)
Req: Which shows the larger fold change (FC) value: a or b ? Field: selected label. Fill in the label of the entry you choose.
Resp: b

---

The following compounds are listed with their measured IC50 values.
assay.info: Cytotoxicity against Chinese hamster F179 transformed cells assessed as reduction in cell viability after 3 days by SRB assay
Type: toxicity, cell-based, Cricetulus griseus
API: value field is a number in µM; no unit string.

Reference set (5 entries):
compound=NC(=O)c1cc(N2CC2)c([N+](=O)[O-])cc1[N+](=O)[O-] result=196
compound="O=[N+]([O-])c1ccc(N2Cc3ccccc3CC2CCl)cc1 (stereo unspecified)" result=3.3
compound="O=[N+]([O-])c1cc(C(F)(F)F)ccc1N1Cc2ccccc2CC1CCl (stereo unspecified)" result=36.6
compound="O=[N+]([O-])c1ccc(N2Cc3ccccc3CC2CCl)c([N+](=O)[O-])c1 (stereo unspecified)" result=49
compound="O=[N+]([O-])c1ccc(N2Cc3ccccc3CC2CCl)c(C(F)(F)F)c1 (stereo unspecified)" result=37.8

Let us examine a further case.
Req: I would be grateful if you could share the reported IC50 for O=[N+]([O-])c1ccc(N2Cc3ccccc3CC2CCl)cc1C(F)(F)F (stereo unspecified) .
Resp: 7.3

---

assay.info: Cytotoxicity against Chinese hamster 186/6 cells expressing rat NQO1 assessed as reduction in cell viability after 3 days by SRB assay
Format: functional, cell-based, Cricetulus griseus
measurement.type: IC50 (µM)
API: value field is a number in µM; no unit string.

Req: I would be grateful if you could share the reported IC50 for O=[N+]([O-])c1cc(C(F)(F)F)ccc1N1Cc2ccccc2CC1CCl (stereo unspecified) .
Resp: 34.4

Req: Try O=[N+]([O-])c1ccc(N2Cc3ccccc3CC2CCl)c(C(F)(F)F)c1 (stereo unspecified) next.
Resp: 22.6

Req: Try O=[N+]([O-])c1ccc(N2Cc3ccccc3CC2CCl)c([N+](=O)[O-])c1 (stereo unspecified) next.
Resp: 36.6

Req: Try O=[N+]([O-])c1ccc(N2Cc3ccccc3CC2CCl)cc1C(F)(F)F (stereo unspecified) next.
Resp: 5.8

Req: Try NC(=O)c1cc(N2CC2)c([N+](=O)[O-])cc1[N+](=O)[O-] next.
Resp: 0.05

Req: Try O=[N+]([O-])c1ccc(N2Cc3ccccc3CC2CCl)cc1 (stereo unspecified) next.
Resp: 2.9

---

measured.target: NAD(P)H dehydrogenase [quinone] 1 (Homo sapiens, UniProt P15559)
Sequence (P15559 whole entry): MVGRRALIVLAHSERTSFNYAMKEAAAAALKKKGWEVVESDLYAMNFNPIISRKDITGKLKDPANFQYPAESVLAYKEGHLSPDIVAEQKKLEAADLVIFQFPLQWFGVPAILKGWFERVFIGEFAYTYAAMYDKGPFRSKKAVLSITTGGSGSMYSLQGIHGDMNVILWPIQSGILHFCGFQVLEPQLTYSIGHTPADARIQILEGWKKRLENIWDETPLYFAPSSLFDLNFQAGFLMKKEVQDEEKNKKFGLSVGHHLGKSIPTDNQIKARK
assay.info: Prodrug activation assessed as human NQO1-mediated compound reduction by measuring specific enzyme activity at 100 uM measured every 20 mins by HPLC based UV-Vis method
measurement.type: Activity (µmol/min/mg)

I: O=[N+]([O-])c1cc(C(F)(F)F)ccc1N1Cc2ccccc2CC1CCl (stereo not given)
II: O=[N+]([O-])c1ccc(N2Cc3ccccc3CC2CCl)c([N+](=O)[O-])c1 (stereo not given)
III: O=[N+]([O-])c1ccc(N2Cc3ccccc3CC2CCl)c(C(F)(F)F)c1 (stereo not given)
Req: Sort the items above on Activity, descending. Field: ranking. Enter the labels in the order requested.
Resp: III, I, II
(III: 0.027 µmol/min/mg, I: 0.0177 µmol/min/mg, II: 0.0033 µmol/min/mg)
